Catalogue of pIC50 readings, one per entry.
- Test target: MMP-3 (stromelysin) (Homo sapiens, UniProt P08254)
- Sequence (P08254 100-477): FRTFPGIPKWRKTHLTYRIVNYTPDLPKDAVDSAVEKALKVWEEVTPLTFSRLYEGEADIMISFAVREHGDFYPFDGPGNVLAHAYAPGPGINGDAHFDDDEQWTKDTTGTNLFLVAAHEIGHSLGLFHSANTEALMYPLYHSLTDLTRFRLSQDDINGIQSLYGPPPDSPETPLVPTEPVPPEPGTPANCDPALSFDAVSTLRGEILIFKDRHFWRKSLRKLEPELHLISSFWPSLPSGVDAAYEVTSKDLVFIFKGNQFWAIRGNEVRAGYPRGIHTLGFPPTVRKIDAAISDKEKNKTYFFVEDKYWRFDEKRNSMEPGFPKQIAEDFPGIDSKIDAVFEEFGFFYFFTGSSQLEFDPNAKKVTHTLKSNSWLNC
- Protocol description: inhibition of MMP-3 hydrolysis of thiopeptolide substrate
- Format: biochemical
- Details: thiopeptolide substrate, pH 6.0, 22° C.; read-out: (IC50) MMP-3
- Source text: The assays measure the amount by which a test compound reduces the hydrolysis of a thiopeptolide substrate caused by a matrix metalloproteinase enzyme. Such assays are described in detail by Ye, et al., in Biochemistry, 1992;31(45):11231-11235). Thiopeptolide substrates show virtually no decomposition or hydrolysis in the absence of a matrix metalloproteinase enzyme. A typical thiopeptolide substrate commonly utilized for assays is Ac-Pro-Leu-Gly-thioester-Len-Len-Gly-O Et. […]
Convention used: pIC50 is expressed as -log10 of the molar concentration.

Looking for the measured pIC50 of CC(Oc1ccccc1)C(=O)NC(CC(=O)c1ccc2oc3ccccc3c2c1)C(=O)O (centres unmarked) , can you help? 7.00

Also O=C(COc1ccccc1)NC(CC(=O)c1ccc2oc3ccccc3c2c1)C(=O)O (centres unmarked) , if possible. 6.29

Also CS(=O)(=O)N[C@@H](CC(=O)c1ccc2oc3ccccc3c2c1)C(=O)O , if possible. 5.04

Would you mind doing COc1ccc(CC(=O)NC(CC(=O)c2ccc3oc4ccccc4c3c2)C(=O)O)cc1OC (centres unmarked) as well? 5.62

Let us now turn to CCCCOc1ccc(C(=O)NC(CC(=O)c2ccc3oc4ccccc4c3c2)C(=O)O)cc1 (centres unmarked) 5.30

---
Param item = O=C(CC(NC(=O)c1ccc(Cl)cc1)C(=O)O)c1ccc2oc3ccccc3c2c1 (centres unmarked) ; retrieve measured pIC50. 5.92

Please give the result for O=C(CC(NC(=O)C(c1ccccc1)c1ccccc1)C(=O)O)c1ccc2oc3ccccc3c2c1 (centres unmarked) too. 6.44

Same thing, different compound: N#Cc1ccc(C(=O)NC(CC(=O)c2ccc3oc4ccccc4c3c2)C(=O)O)cc1 (centres unmarked) 5.96

----------
- Test target: UniProt P08253
- Sequence (P08253 110-660): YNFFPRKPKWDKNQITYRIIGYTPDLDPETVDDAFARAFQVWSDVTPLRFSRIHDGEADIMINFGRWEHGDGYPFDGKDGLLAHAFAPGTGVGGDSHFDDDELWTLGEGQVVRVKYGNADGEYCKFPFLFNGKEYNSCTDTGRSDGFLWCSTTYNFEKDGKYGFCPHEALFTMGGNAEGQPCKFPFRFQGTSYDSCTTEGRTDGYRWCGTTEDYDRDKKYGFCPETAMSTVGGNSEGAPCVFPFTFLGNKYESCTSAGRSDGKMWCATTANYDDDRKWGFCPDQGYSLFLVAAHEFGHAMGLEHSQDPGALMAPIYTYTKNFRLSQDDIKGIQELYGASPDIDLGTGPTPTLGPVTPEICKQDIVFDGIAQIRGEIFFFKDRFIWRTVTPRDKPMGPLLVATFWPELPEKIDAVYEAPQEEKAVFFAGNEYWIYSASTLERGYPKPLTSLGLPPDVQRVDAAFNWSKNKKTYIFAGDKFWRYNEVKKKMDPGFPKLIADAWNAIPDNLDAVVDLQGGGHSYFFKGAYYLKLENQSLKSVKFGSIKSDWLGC
- Protocol description: inhibition of MMP-2 hydrolysis of thiopeptolide substrate
- Type: biochemical
- Details: thiopeptolide substrate, pH 6.0, 22° C.; read-out: (IC50) MMP-2
Each record here notes measured IC50.
Give a bare numeral; the unit nM is implied.

Field: example entries. Status: answers known.
For O=C(CCCc1ccc(Br)cc1)NC(CC(=O)c1ccc2oc3ccccc3c2c1)C(=O)O (stereo not drawn) [Example 31] , what is its reported IC50? 600

What about this molecule? O=C(C=Cc1ccccc1)NC(CC(=O)c1ccc2oc3ccccc3c2c1)C(=O)O (stereo not drawn) [Example 25] 110

Okay, and O=C(CCCCCCc1ccccc1)N[C@@H](CC(=O)c1ccc2oc3ccccc3c2c1)C(=O)O [Example 9] ? 510

# iterate: O=C(O)[C@H](CC(=NO)c1ccc2oc3ccccc3c2c1)NC(=O)C(F)(F)F [Example 16] 720

What do you get for O=C(CC(NC(=O)c1ccccn1)C(=O)O)c1ccc2oc3ccccc3c2c1 (stereo not drawn) [Example 45] ? 110

More entries:
Query (molecule): O=C(CC(NC(=O)c1ccc(F)cc1)C(=O)O)c1ccc2oc3ccccc3c2c1 (stereo not drawn) [Example 43] ; field requested: IC50 70

Ok, now COc1ccc(C(=O)NC(CC(=O)c2ccc3oc4ccccc4c3c2)C(=O)O)cc1OC (stereo not drawn) [Example 47] 130

Then this molecule: O=C(CC(NC(=O)C1CCCC1)C(=O)O)c1ccc2oc3ccccc3c2c1 (stereo not drawn) [Example 49] 80
